molecular target: Toll-like receptor 7 (Homo sapiens, UniProt Q9NYK1); assay: Antagonist activity at TLR7 in human PBMC assessed as inhibition of DOTAP-ssRNA40 induced IFNalpha production preincubated for 30 mins followed by ssRNA40 addition measured after 20 hrs by alphaLISA; type: cell-based
Sequence (Q9NYK1 whole entry): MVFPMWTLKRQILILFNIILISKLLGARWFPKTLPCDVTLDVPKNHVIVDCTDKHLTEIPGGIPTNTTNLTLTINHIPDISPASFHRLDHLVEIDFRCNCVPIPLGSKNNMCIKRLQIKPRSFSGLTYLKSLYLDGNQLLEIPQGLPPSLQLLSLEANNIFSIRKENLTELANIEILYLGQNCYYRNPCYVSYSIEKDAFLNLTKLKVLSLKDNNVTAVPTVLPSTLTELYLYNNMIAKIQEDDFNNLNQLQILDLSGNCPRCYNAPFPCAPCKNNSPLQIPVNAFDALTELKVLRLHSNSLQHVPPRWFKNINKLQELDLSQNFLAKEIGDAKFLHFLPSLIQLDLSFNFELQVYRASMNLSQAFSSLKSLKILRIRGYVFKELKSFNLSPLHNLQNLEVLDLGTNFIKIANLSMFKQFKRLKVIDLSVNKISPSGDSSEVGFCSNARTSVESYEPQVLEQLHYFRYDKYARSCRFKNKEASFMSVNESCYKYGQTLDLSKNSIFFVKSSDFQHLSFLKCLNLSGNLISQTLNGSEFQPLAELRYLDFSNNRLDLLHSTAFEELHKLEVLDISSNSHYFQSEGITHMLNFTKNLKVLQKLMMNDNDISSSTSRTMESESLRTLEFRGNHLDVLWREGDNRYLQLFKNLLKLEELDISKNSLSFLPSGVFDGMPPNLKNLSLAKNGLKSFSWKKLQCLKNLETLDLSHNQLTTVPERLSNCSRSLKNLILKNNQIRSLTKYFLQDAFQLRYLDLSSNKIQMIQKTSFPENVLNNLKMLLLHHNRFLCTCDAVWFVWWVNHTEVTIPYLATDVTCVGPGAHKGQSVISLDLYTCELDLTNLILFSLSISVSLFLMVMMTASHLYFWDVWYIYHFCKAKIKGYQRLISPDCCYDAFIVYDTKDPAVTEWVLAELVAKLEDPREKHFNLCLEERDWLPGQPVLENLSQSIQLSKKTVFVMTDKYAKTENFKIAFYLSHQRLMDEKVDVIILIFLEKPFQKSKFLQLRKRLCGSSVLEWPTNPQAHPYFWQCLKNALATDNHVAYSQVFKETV
pIC50: −log10 of the molar value.
value_kind: pIC50

>>> result("Cc1cc(-c2ccc(=O)n(C)c2)cc2cnc(N3CCN(C(C)C)CC3)nc12")
"< 5.00"

* * *

target: Toll-like receptor 5 (Homo sapiens); experiment: Antagonist activity at TLR5 in human PBMC assessed as inhibition of flagellin-induced TNFalpha production preincubated for 30 mins followed by flagellin addition and measured after 20 hrs by HTRF assay
Sequence (O60602 whole entry): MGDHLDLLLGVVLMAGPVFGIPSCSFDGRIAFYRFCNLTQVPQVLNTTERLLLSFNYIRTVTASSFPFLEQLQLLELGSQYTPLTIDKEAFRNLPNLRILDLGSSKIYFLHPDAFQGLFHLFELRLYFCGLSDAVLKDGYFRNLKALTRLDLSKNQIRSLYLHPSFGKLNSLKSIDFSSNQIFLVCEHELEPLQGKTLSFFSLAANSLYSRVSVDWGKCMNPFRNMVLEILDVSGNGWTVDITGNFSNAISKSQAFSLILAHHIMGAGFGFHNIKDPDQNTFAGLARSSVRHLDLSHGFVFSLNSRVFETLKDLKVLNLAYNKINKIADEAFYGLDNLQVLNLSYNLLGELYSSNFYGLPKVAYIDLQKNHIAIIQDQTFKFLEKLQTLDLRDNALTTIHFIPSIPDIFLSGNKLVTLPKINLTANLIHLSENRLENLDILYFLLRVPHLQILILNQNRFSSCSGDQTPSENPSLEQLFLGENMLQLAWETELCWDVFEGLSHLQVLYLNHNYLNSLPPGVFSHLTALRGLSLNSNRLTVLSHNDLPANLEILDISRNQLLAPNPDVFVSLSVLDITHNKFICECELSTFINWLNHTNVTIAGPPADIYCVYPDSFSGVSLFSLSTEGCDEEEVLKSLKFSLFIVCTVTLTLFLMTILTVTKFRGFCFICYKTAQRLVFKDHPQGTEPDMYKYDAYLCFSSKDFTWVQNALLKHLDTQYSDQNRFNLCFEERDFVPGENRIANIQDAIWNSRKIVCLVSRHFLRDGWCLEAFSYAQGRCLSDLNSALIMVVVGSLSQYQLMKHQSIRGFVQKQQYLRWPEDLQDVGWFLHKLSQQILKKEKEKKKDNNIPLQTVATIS
value_kind: IC50

>>> result("O=c1ccc(-c2cc(C(F)(F)F)c3nn([C@H]4CCNC[C@@H]4F)cc3c2)c2n1CCC2")
"> 6.5 µM"
